- test_details: A qHTS for Small Molecule Inhibitors of Shiga Toxin
- particulars: Vero cells, Shiga toxin protein synthesis inhibition reporter; at 38.7 µM
Hit rate of the full screen: of about 290,000 compounds, about 27,000 (9.3%) were called active. Rule as the data show it: active = inhibition mostly above about 28% (no sharp cut-off); inactive = mostly below about 43%. For the sample, actives were picked, then their nearest neighbours and some compounds at random.
// one of active, inactive, no free text

molecule	class
CC1CCN(C(=O)c2ccc3c(=O)n4c(nc3c2)CCCCC4)CC1	inactive
CCCCc1nc2cc(C(=O)N3CCCCC3CCO)ccc2o1 (stereo not given)	active
CCC1CCCCN1C(=O)CSc1nc(C)cc(C)n1 (stereo not given)	inactive
O=C(NCc1ccco1)/C(=C/c1cccc([N+](=O)[O-])c1)NC(=O)c1ccco1	inactive
Cn1c(NN)nc2sc3c(c2c1=O)CCC3	inactive

Which outcome was entered for the molecule COc1cccc(C(=O)Nc2ccc(N3CCN(C(=O)c4ccco4)CC3)cc2)c1 in this test?
inactive

Hello, I am checking results. What call was entered for Cc1nc(/N=C(\N)NC(=O)NC2CCCCC2)nc2ccccc12 ?
active

Which outcome was entered for the molecule O=C(NNC(=O)C(O)c1ccccc1)NC1CCCCC1 (stereo not given) in this test?
inactive

Where do the numbers come from? From PubChem BioAssay AID2315.
